Below are pKi values recorded for Carbonic anhydrase 9 (Homo sapiens, UniProt Q16790).
As a rule, pKi stands for the negative log10 of the concentration, concentration in M.

Reference set (3 entries):
- COMPOUND: "COc1cccc(CCNC(=O)c2ccc(S(N)(=O)=O)cc2)c1"
  RESULT_NUMBER: 8.19
- COMPOUND: "COc1cc2c(cc1OC)C(c1ccc(S(N)(=O)=O)cc1)NCC2 (stereo not given)"
  RESULT_NUMBER: 6.89
- COMPOUND: "COc1ccc2c(c1)CCN(S(N)(=O)=O)C2c1ccc(S(N)(=O)=O)cc1 (stereo not given)"
  RESULT_NUMBER: 8.19

// fetch Carbonic anhydrase 9 (Homo sapiens, UniProt Q16790) pKi for COc1ccc2c(c1)CCNC2c1ccc(S(N)(=O)=O)cc1 (racemic)
7.81

// fetch Carbonic anhydrase 9 (Homo sapiens, UniProt Q16790) pKi for CCOc1ccc2c(c1)CCNC2c1ccc(S(N)(=O)=O)cc1 (racemic)
8.04

---

SYSTEM_UNDER_TEST: Carbonic anhydrase 2 (Homo sapiens)
QUANTITY: Ki (nM)
Record the value in nM, omitting the unit from your answer.

Consider the molecule CCCOc1ccc2c(c1)CCN=C2c1ccc(S(N)(=O)=O)cc1 and give its measured Ki.
8.8

---

SYSTEM_UNDER_TEST: Carbonic anhydrase 9 (Homo sapiens)
pKi: −log10 of the molar value.
Tick True if pKi is 7 or greater. Tick False if pKi is less than 7.

- COMPOUND: "NS(=O)(=O)c1ccc(C2=NCCc3cc(O)ccc32)cc1"
  ASSIGNED_LABEL: "True"
- COMPOUND: "COc1cc2c(cc1OC)C(c1ccc(S(N)(=O)=O)cc1)=NCC2"
  ASSIGNED_LABEL: "False"
- COMPOUND: "CCOc1ccc2c(c1)CCN(S(N)(=O)=O)C2c1ccc(S(N)(=O)=O)cc1 (stereo not given)"
  ASSIGNED_LABEL: "True"

Threshold query (pKi >= 7) on NS(=O)(=O)c1ccc(C2c3ccc(O)cc3CCN2S(N)(=O)=O)cc1 (stereo not given)
True

Threshold query (pKi >= 7) on CCCOc1cccc(CCNC(=O)c2ccc(S(N)(=O)=O)cc2)c1
True
